Biological target: T1, recombinant human PDL1 (human, UniProt Q9NZQ7 19-238, limits assumed)
T1 construct: SPR antigen; also called CD274; B7-H1
Experiment: SPR
koff listing for selected binders.

Below: 4 binders and their reported koff.
{"Binder": "PRO5036 (scFv, anti-PDL1 scFv) scFv: DIQMTQSPSSLSASVGDRVTITCQASQSIGTYLAWYQQKPGKPPKLLIYRGGILASGVPSRFSGSGSGTDFTLTISSLQPEDFATYYCQSNFYSDSTTIGPNAFGTGTKVTVLGGGGGSGGGGSGGGGSGGGGSQQLVESGGGLVQPGGSLRLSCAASGFSFNSDYWIYWVRQAPGKGLEWIASIYGGSSGNTQYASWAQGRFTISKDNSKNTVYLQMNSLRAEDTAVYFCARGYVDYGGATDLWGQGTLVTVSS", "koff": "0.00014 s⁻¹"}
{"Binder": "PRO3891 (scFv, anti-PDL1 scFv) scFv: DIQMTQSPSSLSASVGDRVTITCQASQSINDYLAWYQQKPGKAPKLLIYKGGTLASGVPSRFSGSGSGTDFTLTISSLQPEDFATYYCQQGYIITDIDNVFGTGTKVTVLGGGGGSGGGGSGGGGSGGGGSQVQLQESGPGLVKPSETLSLTCKASGFSFSSGYDMCWVRQPPGKGLEWIACVVAGSVDITYYASWAKGRVTISKDSSKNQVSLKLSSVTAADSAVYYCARKDAYSDAFNLWGQGTLVKVSS", "koff": "3.9e-05 s⁻¹"}
{"Binder": "PRO2230 (scFv, anti-PDL1 scFv; also called 37-20-B03-sc09.1) scFv: DIQMTQSPASLSASVGDRVTITCQASQSIGTYLAWYQQKPGKPPKLLIYRAFILASGVPSRFSGSGSGTDFTLTISSLQPEDFATYYCQSNFYSDSTTIGPNAFGTGTKVTVLGGGGGSGGGGSGGGGSGGGGSEVQLVESGGGLVQPGGSLRLSCAASGFSFNSDYWIYWVRQAPGKGLEWIASIYGGSSGNTQYASWAQGRFTISRDNSKNTVYLQMNSLRAEDTAVYFCARGYVDYGGATDLWGQGTLVTVSS", "koff": "9.3e-05 s⁻¹"}
{"Binder": "PRO4245 (scFv, anti-PDL1 scFv) scFv: DIQMTQSPSSLSASVGDRVTITCQASQSIGTYLAWYQQKPGKPPKLLIYRGGILASGVPSRFSGSGSGTDFTLTISSLQPEDFATYYCQSNFYSDSTTIGPNAFGTGTKVTVLGGGGGSGGGGSGGGGSGGGGSQQLVESGGGLVQPGGSLRLSCAASGFSFNSDYWIYWVRQAPGKGLEWIASIYGGSSGNTQYASWAQGRFTISKDNSKNTVYLQMNSLRAEDSAVYFCARGYVDYGGATDLWGQGTLVKVSS", "koff": "0.00014 s⁻¹"}

From here, focus on the item given below.
So for PRO3724 (scFv, anti-PDL1 scFv) scFv: DIQMTQSPSSLSASVGDRVTITCQASQSINDYLAWYQQKPGKAPKLLIYKGGTLASGVPSRFSGSGSGTDFTLTISSLQPEDFATYYCQQGYIITDIDNVFGTGTKVTVLGGGGGSGGGGSGGGGSGGGGSQVQLQESGPGLVKPSETLSLTCKASGFSFSSGYDMCWVRQPPGKGLEWIACVVAGSVDITYYASWAKGRVTISKDSSKNQVSLKLSSVTAADTAVYYCARKDAYSDAFNLWGQGTLVTVSS , the logged koff turned out to be 5.7e-05 s⁻¹

This collection of values is drawn from patent EP4574844A1.
